- experiment: soluble fraction after stress (log2 fold change); higher = more stays soluble; pooled small domains, quantitative proteomics;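 further: 20 min heating vs room temperature control held 20 min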
- protocol.conditions: stress: 75 degC
property.measured: soluble fraction (log2)

[[record]]
sequence_record = "HMLTAPMPGIVRQVNVDTGQKVRKGQPLMVLEAMKMEHQIIAPQAGKIEAIHYNEGDRVEMGSVLISIF"
reported_result = -1.17

[[record]]
sequence_record = "HMENYIEQLTAKNSEYIHVVTRELVKIGKSDEEIKAILSDILPQIVAAQDQRVLAKDILGTPSEFTAKYAP"
reported_result = 0.462

[[record]]
sequence_record = "HMVPSTAVIFTELVSMRSEPATKSPVTHQLTKGTAITINEEKDGWYQVTDQTGNSGWIVKWAVKPTYFTNP"
reported_result = -0.967

[[record]]
sequence_record = "HMNGTEAIRRYIDQFASKHATTPRMLKLNERKQLIQELKNNGLLEIKKAVETVAQHLGISRASAYLYVKE"
reported_result = -1.52

